# pIC50 against human ACC2 (Homo sapiens (Human), UniProt O00763), merged from multiple literature sources
pIC50: −log10 of the molar value.
The class of a record is decided solely by its measured pIC50; consult lower bin: < 6; middle bin: ≥ 6 and < 7; upper bin: ≥ 7

- COMPOUND: "CC(=O)N[C@@H](C)Cc1ccc(C#Cc2ccc(OCC(C)C)cc2)cc1"
  LABEL_VALUE: "middle bin"

Please classify: CC(=O)NC(C)c1ccc(C2CN(c3ccc4c(c3)OCCO4)C2)cc1 (stereo not drawn) middle bin

Which of the defined bands does the recorded pIC50 of CC(=O)N[C@@H](C)c1ccc(O[C@@H]2CCN(c3ccnc(N4CCC(F)(F)C4)c3Cl)C2)cc1 sit within? upper bin

Quick check: band for C[C@H](NC(=O)c1cncnc1)c1ccc(OC2CCN(c3ccnc(OCC4CC4)c3)C2)cc1 (stereo partly drawn) middle bin

Classify this compound: CCC1CCC2(CC1)OC(=O)C(c1cc(-c3ccc(Cl)cc3)ccc1C)=C2O (stereo not drawn) lower bin

Any idea which band CC(=O)NC(C)Cc1ccc(C#Cc2cccc(C(=O)N3CCCCC3)c2)cc1 (stereo not drawn) is in? lower bin

Class for C[C@H](NC(=O)c1cnn(C)c1)c1ccc(C2CN(c3ccc(OCC4CC4)cc3)C2)cc1 ? middle bin

Category of C[C@H](NC(=O)c1cnco1)c1ccc(OC2CCN(c3ccnc(N4CCC(F)(F)C4)c3F)C2)cc1 (stereo partly drawn) : upper bin

Class for CCCOc1nccc(N2CC[C@@H](Oc3ccc([C@H](C)NC(C)=O)cc3)C2)c1F ? upper bin

Tag the class for CC(=O)N[C@@H](C)c1ccc(OC2CCN(c3ccc(OCC4CC4(F)F)cc3)C2)cc1 (stereo partly drawn) upper bin

Lab log: CCCc1ccc(C#Cc2ccc(CC(C)NC(C)=O)cc2)cc1 (stereo not drawn) — assign pIC50 category middle bin

Classify this compound: CC(=O)N[C@@H](C)c1ccc(C2CN(c3ncc(C4CC4)cn3)C2)cc1 middle bin

Sort into band: CCCOc1ccc(C2CCN(c3ccc(C(C)C(=O)NCC)cc3)CC2)cc1 (stereo not drawn) middle bin

Class for CC(=O)NC(C)Cc1ccc(C#Cc2ccc(C(C)=O)cc2)cc1 (stereo not drawn) ? lower bin

Category lookup for the compound CCCOc1ccc(N2CC[C@@H](Oc3ccc(C(C)C(=O)NCC)cc3)C2)c(Cl)c1 (stereo partly drawn) middle bin

Which of the defined bands does the recorded pIC50 of CCOc1ccc(N2CC[C@@H](Oc3ccc([C@H](C)NC(C)=O)cc3)C2)c(OC)n1 sit within? middle bin

Hi, small favor: classify C[C@H](NC(=O)[C@H]1CCC(=O)N1)c1ccc(CN2Cc3ccc(OCC4CC4)cc3C(F)C2)cc1 (stereo partly drawn) by its pIC50 when you get a moment. middle bin

Assign a bin to CC(=O)N[C@@H](C)c1ccc(O[C@@H]2CCN(c3cc(N4CCOCC4)ncc3F)C2)cc1 middle bin

// bin(item) where item = CC(=O)NC(C)Cc1ccc(C#Cc2ccc(OCCN3CCCCC3)cc2)cc1 (stereo not drawn) lower bin

###

Collected set of pIC50 measured with human ACC2 (Homo sapiens (Human)) across studies.
Answer as the number alone; pIC50 is minus log10 of concentration in mol/L.

// below: answered compounds
- COMPOUND: "C[C@H](NC(=O)c1c[nH]nc1C(F)(F)F)c1ccc(O[C@@H]2CCN(c3ccc(OCC4CC4)cc3)C2)cc1"
  pIC50: 6.35
- COMPOUND: "CC(=O)NC(C)CCc1ccc(C2CN(c3cccc(OC(C)C)c3)C2)cc1 (stereo not shown)"
  pIC50: 5.50
- COMPOUND: "CC(=O)N[C@@H](C)c1ccc(OC2CCN(c3ccc(OCC4CC4(F)F)c(F)c3)C2)cc1 (stereo partly shown)"
  pIC50: 7.19
- COMPOUND: "C[C@H](NC(=O)C1CC(F)C1)c1ccc(C2CN(c3ccc(OCC4CC4)cc3)C2)cc1 (stereo partly shown)"
  pIC50: 5.93

Moving on to another compound below.
Reported pIC50 of COc1c(OCCCF)ccc2c1CCN(Cc1ccc([C@H](C)NC(C)=O)cc1)C2 : 6.68
